# procedure summary: Diluents lowering the melting point of pelargonic acid: visual appearance (crystal/clear) of pelargonic acid/diluent blends at low temperature
measured parameter: diluent amount required to lower the melting point of pelargonic acid to 0° C. (or lower) (%)

compound | scale unit | meas value
CCCCCCC(=O)O [Heptanoic acid] | % | 25
CCCCC(CC)C(=O)O (stereo not drawn) [2-EH acid, 2-ethyhexanoic acid] | % | 30
CCCCCCCCOC(=O)C(C)O (stereo not drawn) [Octyl lactate] | % | 30
CCCCC(=O)O [Valeric C5 acid, valeric acid] | % | 30
COC(=O)c1ccccc1O [Methyl salicylate] | % | 35
CCCCC(CC)CO (stereo not drawn) [2-EH alcohol, 2-ethylhexanol] | % | 30

* * *

# procedure summary: Diluents lowering the melting point of pelargonic acid: visual appearance (crystal/clear) of pelargonic acid/diluent blends at low temperature
# condition label: pelargonic acid 75 wt % + diluent 25 wt %
measured parameter: appearance at 0° C.

Known appearance at 0° C. results, listed for orientation:
compound | appearance at 0° C.
CCCCCCCCOC(=O)C(C)O (centres unmarked) [Octyl lactate] | Crystal
C=C(C)[C@H]1CC=C(C)CC1 | Crystal
CCCCOC(C)=O [Butyl Acetate] | Clear
CCCCCCC(=O)O | Clear

# context switch: different compound, same appearance at 0° C.
// query Supply recorded appearance at 0° C. for COC(=O)c1ccccc1O [Methyl salicylate] here.
// result Crystal
